assayTarget: STAT3 (Homo sapiens, UniProt P40763)
Sequence (P40763 whole entry): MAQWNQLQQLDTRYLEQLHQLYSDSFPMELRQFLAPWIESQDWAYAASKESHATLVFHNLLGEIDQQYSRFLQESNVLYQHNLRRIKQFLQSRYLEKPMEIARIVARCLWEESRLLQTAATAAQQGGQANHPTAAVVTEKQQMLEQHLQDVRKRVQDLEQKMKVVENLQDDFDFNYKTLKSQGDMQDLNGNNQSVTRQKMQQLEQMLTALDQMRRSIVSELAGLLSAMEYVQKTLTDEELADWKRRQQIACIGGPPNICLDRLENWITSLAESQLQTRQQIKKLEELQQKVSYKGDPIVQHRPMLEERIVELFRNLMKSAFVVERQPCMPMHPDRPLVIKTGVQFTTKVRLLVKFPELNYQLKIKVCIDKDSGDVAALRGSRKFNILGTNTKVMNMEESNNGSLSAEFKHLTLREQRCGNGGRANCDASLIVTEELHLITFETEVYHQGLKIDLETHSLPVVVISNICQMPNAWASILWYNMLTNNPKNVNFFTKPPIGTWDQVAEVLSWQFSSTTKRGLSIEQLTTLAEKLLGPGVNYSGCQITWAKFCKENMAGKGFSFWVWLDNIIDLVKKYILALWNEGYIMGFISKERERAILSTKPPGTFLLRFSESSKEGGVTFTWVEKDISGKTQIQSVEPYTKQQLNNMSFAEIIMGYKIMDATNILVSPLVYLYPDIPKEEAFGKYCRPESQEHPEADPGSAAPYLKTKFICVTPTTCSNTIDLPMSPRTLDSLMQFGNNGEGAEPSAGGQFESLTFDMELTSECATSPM
experimentalDetails: STAT3 HiBiT degradation assay in transfected A549 cells
Assay type: cell-based
Design: expressed in transfected cells; host or cells: A549
studyConditions: A549, 24 h; read-out: STAT3 HiBiT A549 degradation 24 h: Average external-Abs DC50
experimentalEndpoint: DC50

{"columns": ["compound", "DC50"],
 "data": [
  ["Cc1ncsc1-c1ccc([C@H](C)NC(=O)[C@@H]2C[C@@H](O)CN2C(=O)[C@@H](NC(=O)OCCCCc2cccc(OC[C@H](CCC(N)=O)NC(=O)[C@@H]3Cc4cccc5c4N3C(=O)[C@@H](NC(=O)c3cc4cc(C(=O)P(=O)(O)O)ccc4[nH]3)CC5)c2F)C(C)(C)C)cc1 [Compound I-281]", "< 0.01 µM"],
  ["Cc1ncsc1-c1ccc([C@H](C)NC(=O)[C@@H]2C[C@@H](O)CN2C(=O)[C@@H](NC(=O)CCCCCc2cccc(NC[C@H](CCC(N)=O)NC(=O)[C@@H]3Cc4cccc5c4N3C(=O)[C@@H](NC(=O)c3cc4cc(C(=O)P(=O)(O)O)ccc4[nH]3)CC5)c2F)C(C)(C)C)cc1 [Compound I-265]", "0.01 to 0.1 µM"],
  ["CC(C)c1ccc(CNC(=O)[C@H](CCC(N)=O)NC(=O)[C@@H]2CC[C@@H]3CCN(C(=O)C[C@H]4CC[C@@H](Cc5ccc6c(c5)n(C)c(=O)n6C5CCC(=O)NC5=O)CC4)C[C@H](NC(=O)c4cc5cc(C(=O)P(=O)(O)O)ccc5[nH]4)C(=O)N32)cc1 (some centres unmarked) [Compound I-196]", "0.01 to 0.1 µM"],
  ["Cc1ncsc1-c1ccc(CNC(=O)[C@@H]2C[C@@H](O)CN2C(=O)[C@@H](NC(=O)CN2CCC(Cc3ccc(CO[C@H](C)[C@H](CCC(N)=O)NC(=O)[C@@H]4Cc5cccc6c5N4C(=O)[C@@H](NC(=O)c4cc5cc(C(=O)P(=O)(O)O)ccc5[nH]4)CC6)cc3)CC2)C(C)(C)C)cc1 [Compound I-178]", "> 1 µM"],
  ["Cc1ncsc1-c1ccc(C2(NC(=O)[C@@H]3C[C@@H](O)CN3C(=O)[C@@H](NC(=O)CCCc3cccc(OC[C@H](CCC(N)=O)NC(=O)[C@@H]4Cc5cccc6c5N4C(=O)[C@@H](NC(=O)c4cc5cc(C(=O)P(=O)(O)O)ccc5[nH]4)CC6)c3Cl)C(C)(C)C)CC2)cc1 [Compound I-283]", "0.01 to 0.1 µM"],
  ["Cn1c(=O)n(C2CCC(=O)NC2=O)c2ccc([C@H]3CC[C@H](CCCC(=O)N4CC[C@H]5CC[C@@H](C(=O)NC(CCC(N)=O)C(=O)NC(c6ccccc6)c6ccccc6)N5C[C@@H](NC(=O)c5cc6cc(C(=O)P(=O)(O)O)ccc6[nH]5)C4)CC3)cc21 (some centres unmarked) [Compound I-271]", "0.1 to 1 µM"],
  ["Cc1ncsc1-c1ccc(CNC(=O)[C@@H]2C[C@@H](O)CN2C(=O)[C@@H](NC(=O)[C@H]2C[C@H](Cc3ccc(CO[C@H](C)[C@H](CCC(N)=O)NC(=O)[C@@H]4Cc5cccc6c5N4C(=O)[C@@H](NC(=O)c4cc5cc(C(=O)P(=O)(O)O)ccc5[nH]4)CC6)cc3)C2)C(C)(C)C)cc1 [Compound I-146]", "0.1 to 1 µM"],
  ["Cc1ncsc1-c1ccc([C@H](C)NC(=O)[C@@H]2C[C@@H](O)CN2C(=O)[C@@H](NC(=O)CCCCc2ccc(CCC[C@H](CCC(N)=O)NC(=O)[C@@H]3Cc4cccc5c4N3C(=O)[C@@H](NC(=O)c3cc4cc(C(=O)P(=O)(O)O)ccc4[nH]3)CC5)cc2)C(C)(C)C)cc1 [Compound I-237]", "0.01 to 0.1 µM"]
]}

Data point: Cc1ncsc1-c1ccc(CNC(=O)[C@@H]2C[C@@H](O)CN2C(=O)[C@@H](NC(=O)CCc2cccc3cc(CO[C@H](C)[C@H](CCC(N)=O)NC(=O)[C@@H]4Cc5cccc6c5N4C(=O)[C@@H](NC(=O)c4cc5cc(C(=O)P(=O)(O)O)ccc5[nH]4)CC6)ccc23)C(C)(C)C)cc1 [Compound I-136] ; DC50 = > 1 µM

Data point: Cc1ncsc1-c1ccc([C@H](C)NC(=O)[C@@H]2C[C@@H](O)CN2C(=O)[C@@H](NC(=O)CCc2cccc(OC[C@H](CCC(N)=O)NC(=O)[C@@H]3Cc4cccc5c4N3C[C@@H](CC(=O)C3Cc4cc(C(=O)P(=O)(O)O)ccc4N3)CC5)c2)C(C)(C)C)cc1 (some centres unmarked) [Compound I-260] ; DC50 = > 1 µM

Data point: CC(=O)N1CC[C@H]2CC[C@@H](C(=O)N[C@@H](CCC(N)=O)COc3cc(C)cc(CCCCCC(=O)N[C@H](C(=O)N4C[C@H](O)C[C@H]4C(=O)N[C@@H](C)c4ccc(-c5scnc5C)cc4)C(C)(C)C)c3F)N2C(=O)[C@@H](NC(=O)c2cc3cc(C(=O)P(=O)(O)O)ccc3[nH]2)C1 [Compound I-262] ; DC50 = < 0.01 µM

Data point: Cn1c(=O)n(C2CCC(=O)NC2=O)c2cccc(CCCC(=O)N3CC[C@H]4CC[C@@H](C(=O)N[C@@H](CCC(N)=O)C(=O)NC(c5ccccc5)c5ccccc5)N4C(=O)[C@@H](NC(=O)c4cc5cc(C(=O)P(=O)(O)O)ccc5[nH]4)C3)c21 (some centres unmarked) [Compound I-122] ; DC50 = > 1 µM

Data point: Cn1c(=O)n(C2CCC(=O)NC2=O)c2ccc([C@H]3CC[C@@H](CCC(=O)N4CC[C@H]5CC[C@@H](C(=O)N[C@@H](CCC(N)=O)C(=O)NC(c6ccccc6)c6ccccc6)N5C(=O)[C@@H](NC(=O)c5cc6cc(C(=O)P(=O)(O)O)ccc6[nH]5)C4)CC3)cc21 (some centres unmarked) [Compound I-273] ; DC50 = 0.1 to 1 µM

Data point: Cn1c(=O)n(C2CCC(=O)NC2=O)c2ccc(NCCCCCC(=O)N3CC[C@H]4CC[C@@H](C(=O)N[C@@H](CCC(N)=O)C(=O)NC(c5ccccc5)c5ccccc5)N4C(=O)[C@@H](NC(=O)c4cc5cc(C(=O)P(=O)(O)O)ccc5[nH]4)C3)cc21 (some centres unmarked) [Compound I-132] ; DC50 = 0.1 to 1 µM
